assay: Decomposition of prodrugs in mouse plasma in vitro (HPLC of released propofol or other substituted phenol); format: in vitro ADME; conditions: 37° C., 1 min
Please go through the items and note down their Decomposition rates of prodrugs.
The reply must contain the numeric value and, after it, the unit.

Reference set, count: 6
# COMPOUND, Decomposition rates of prodrugs
records = [
    ("CC(C)c1cccc(C(C)C)c1OC(=O)COC(=O)[C@@H](C)N(C)C.Cl", "100%"),
    ("CC(C)c1cccc(C(C)C)c1OC(=O)COC(=O)CN1CCN(C)CC1", "100%"),
    ("CNCC(=O)OCC(=O)Oc1c(C(C)C)cccc1C(C)C", "98%"),
    ("CC(C)C[C@@H](N)C(=O)OCC(=O)Oc1c(C(C)C)cccc1C(C)C.Cl", "100%"),
    ("CC(C)c1cccc(C(C)C)c1OC(=O)COC(=O)CN1CCOCC1 [Compound 27]", "65%"),
    ("CC(C)c1cccc(C(C)C)c1OC(=O)COC(=O)CN1CCOCC1 [Compound 23]", "100%"),
]

Report Decomposition rates of prodrugs for every entry below.
1. CC(C)c1cccc(C(C)C)c1OC(=O)COC(=O)[C@H](C)N
2. CC(C)c1cccc([C@H](C)C2CC2)c1OC(=O)COC(=O)CN1CCOCC1.Cl
3. CC(C)c1cccc(C(C)C)c1OC(=O)COC(=O)CN1CCCCC1
4. CC(C)c1cccc(C(C)C)c1OC(=O)COC(=O)CN1CCOCC1 [Compound 22]

Data returned:
100%
63%
100%
66%
